Overview of recorded IC50 for various molecules
# assayed-target: Genome polyprotein (dengue virus type 2, UniProt P29990)
# Sequence (P29990 2492-3391 limits assumed): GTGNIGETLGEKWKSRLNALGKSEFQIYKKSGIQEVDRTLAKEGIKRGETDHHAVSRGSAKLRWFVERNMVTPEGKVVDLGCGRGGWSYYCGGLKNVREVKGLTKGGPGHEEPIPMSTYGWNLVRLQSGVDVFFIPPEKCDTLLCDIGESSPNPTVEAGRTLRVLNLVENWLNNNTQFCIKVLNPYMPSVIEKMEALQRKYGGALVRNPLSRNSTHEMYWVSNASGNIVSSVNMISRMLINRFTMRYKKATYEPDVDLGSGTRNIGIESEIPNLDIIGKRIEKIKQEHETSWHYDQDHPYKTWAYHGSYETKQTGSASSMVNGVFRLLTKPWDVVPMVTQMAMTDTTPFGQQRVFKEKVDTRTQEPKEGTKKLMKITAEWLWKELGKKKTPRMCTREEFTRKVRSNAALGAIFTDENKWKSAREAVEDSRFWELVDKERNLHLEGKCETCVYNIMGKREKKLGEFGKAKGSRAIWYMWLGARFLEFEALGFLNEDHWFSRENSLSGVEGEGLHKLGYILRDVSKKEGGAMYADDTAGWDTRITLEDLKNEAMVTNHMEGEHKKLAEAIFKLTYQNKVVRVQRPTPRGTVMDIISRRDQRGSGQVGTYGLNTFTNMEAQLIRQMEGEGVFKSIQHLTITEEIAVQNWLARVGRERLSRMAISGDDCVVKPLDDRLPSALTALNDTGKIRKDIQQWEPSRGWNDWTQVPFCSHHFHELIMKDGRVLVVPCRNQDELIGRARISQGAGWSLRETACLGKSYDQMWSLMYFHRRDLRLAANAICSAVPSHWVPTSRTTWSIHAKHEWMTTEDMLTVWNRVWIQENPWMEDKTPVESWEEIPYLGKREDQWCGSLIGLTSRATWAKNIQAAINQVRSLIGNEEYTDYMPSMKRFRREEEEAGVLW
# method-notes: Dengue-2 NS5 methyltransferase inhibitors, primary screen, biochemical, confirmation dose response (AID 588689)
# Assay type: functional
Active and inactive are the calls of the source.

- molecule: "CCCCN(CCCC)c1ccc(C(=O)c2ccccc2C(=O)O)c(O)c1"
  assayed-target: "Genome polyprotein (dengue virus type 2, UniProt P29990)"
  IC50: "44.1 µM (active)"
- molecule: "O=C(O)/C(=C\\c1c(C(=O)O)[nH]c2cc(Cl)cc(Cl)c12)c1ccccc1"
  assayed-target: "Genome polyprotein (dengue virus type 2, UniProt P29990)"
  IC50: "75.5 µM (active)"
- molecule: "COc1ccc(Nc2cc(Cl)ccc2C(=O)O)cn1"
  assayed-target: "Genome polyprotein (dengue virus type 2, UniProt P29990)"
  IC50: "63.5 µM (active)"
- molecule: "CCOC(=O)c1sc(N2C(=O)C(O)=C(C(=O)c3ccco3)C2c2ccc([N+](=O)[O-])cc2)nc1C (stereo not given)"
  assayed-target: "Genome polyprotein (dengue virus type 2, UniProt P29990)"
  IC50: "38.1 µM (active)"

Next:
Prompt: For the molecule O=C(O)CCN1C(=O)/C(=C\c2cccc(OCC(=O)Nc3ccc(Cl)cc3)c2)SC1=S , what IC50 is on record?
Completion: 34.9 µM (active)

---

# assayed-target: UniProtKB Q9XUB2
# Sequence (Q9XUB2 whole entry): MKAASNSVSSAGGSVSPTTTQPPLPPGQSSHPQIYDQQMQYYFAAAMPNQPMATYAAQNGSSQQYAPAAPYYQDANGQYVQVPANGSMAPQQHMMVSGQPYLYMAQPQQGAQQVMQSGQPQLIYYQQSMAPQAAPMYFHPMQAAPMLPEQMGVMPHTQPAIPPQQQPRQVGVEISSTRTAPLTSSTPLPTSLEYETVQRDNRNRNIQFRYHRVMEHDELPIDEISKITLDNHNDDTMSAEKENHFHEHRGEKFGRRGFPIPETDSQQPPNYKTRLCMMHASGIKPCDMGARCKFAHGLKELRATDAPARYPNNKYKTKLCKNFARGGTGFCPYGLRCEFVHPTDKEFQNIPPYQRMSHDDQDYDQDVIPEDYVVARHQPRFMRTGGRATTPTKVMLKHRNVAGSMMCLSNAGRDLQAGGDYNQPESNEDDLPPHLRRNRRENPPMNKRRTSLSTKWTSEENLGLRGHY
# method-notes: MEX-5/TCR-2 RNA interaction inhibitors, dose response, biochemical, C. elegans, fluorescence polarization (AID 1960)
The source made the active and inactive calls.
Catalogue of EC50 readings, one per entry.

Solved entries:
- compound: "C[C@H]1c2cccc(O)c2C(=O)C2=C(O)[C@]3(O)C(O)=C(C(N)=O)C(=O)[C@@H](N(C)C)C3[C@@H](O)C21 (stereo partly specified)"
  assayed-target: "UniProtKB Q9XUB2"
  property-name: "EC50"
  test-result: "45.3 µM (active)"
- compound: "COc1ccc(-c2nc(C[S+]([O-])CC(=O)NCc3ccccn3)c(C)o2)cc1 (stereo unspecified)"
  assayed-target: "UniProtKB Q9XUB2"
  property-name: "EC50"
  test-result: "30.5 µM (active)"

Prompt: Can you look up the measured EC50 of CN(C)/C=C/C(=O)c1cnc(-c2ccccc2Cl)s1 for me?
Completion: > 300 µM (not active)

Prompt: Fill in the blank: the reported EC50 of Cc1ccc(C[S+]([O-])Cc2ccc(C(=O)N3CCN(c4ccccc4)CC3)o2)cc1 (stereo unspecified) is ____.
Completion: > 300 µM (not active)
